Hello, the source for this data is patent US11186576B2, in case you need it.

Target: CDK7/CycH/MNAT1 (Homo sapiens (Human), UniProt P50613)
Sequence (P50613 whole entry): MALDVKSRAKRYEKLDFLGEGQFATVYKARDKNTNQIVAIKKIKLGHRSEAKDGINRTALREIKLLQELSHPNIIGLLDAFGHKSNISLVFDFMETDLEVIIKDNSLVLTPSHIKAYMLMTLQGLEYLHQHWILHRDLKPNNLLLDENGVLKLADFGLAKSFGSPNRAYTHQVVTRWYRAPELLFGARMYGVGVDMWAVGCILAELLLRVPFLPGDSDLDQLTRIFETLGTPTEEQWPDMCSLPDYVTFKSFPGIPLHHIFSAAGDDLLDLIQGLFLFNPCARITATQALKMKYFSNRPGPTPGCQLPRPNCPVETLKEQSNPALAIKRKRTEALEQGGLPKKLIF
Sequence (P51946 whole entry partner): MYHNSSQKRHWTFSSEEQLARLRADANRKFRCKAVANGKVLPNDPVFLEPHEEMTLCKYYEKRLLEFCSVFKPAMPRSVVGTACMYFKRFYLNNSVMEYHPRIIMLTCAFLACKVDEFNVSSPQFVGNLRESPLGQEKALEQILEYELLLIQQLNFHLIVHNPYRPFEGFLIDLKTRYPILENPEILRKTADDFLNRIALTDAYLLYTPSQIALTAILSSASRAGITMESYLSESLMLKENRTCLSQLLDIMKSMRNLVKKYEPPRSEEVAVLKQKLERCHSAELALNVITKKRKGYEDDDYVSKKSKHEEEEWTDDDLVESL
Sequence (P51948 whole entry partner): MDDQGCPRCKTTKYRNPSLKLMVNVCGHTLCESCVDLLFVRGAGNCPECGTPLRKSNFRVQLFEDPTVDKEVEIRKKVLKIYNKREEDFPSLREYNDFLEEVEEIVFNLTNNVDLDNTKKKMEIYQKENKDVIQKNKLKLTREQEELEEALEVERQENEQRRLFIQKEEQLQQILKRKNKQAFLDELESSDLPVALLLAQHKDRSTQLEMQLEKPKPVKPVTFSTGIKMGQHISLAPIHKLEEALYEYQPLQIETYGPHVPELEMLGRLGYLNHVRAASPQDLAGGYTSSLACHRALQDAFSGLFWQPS
Assay: Biochemical assay for CDK7 (TR-FRET kinase assay)
Conditions: 60 min pre-incubation; 1 mM ATP; read-out: IC50
Protocol: The ability of compounds to inhibit CDK7 kinase activity was tested in a TR-FRET assay using 5 nM of CDK7/CycH/MNAT1 obtained from Invitrogen, USA. Test compounds were pre-incubated with the kinase at room temperature for 60 min. […] 1 nM Eu-labelled antiphospho-MBP antibody [Perkin Elmer, USA] was added, mixed well and the fluorescence emission at 615 nm and 665 nm [excitation at 340 nm] was measured. […] All the fluorescence measurements were made in a Victor 3 Multilabel Counter [Perkin Elmer, USA]. […]
pIC50: −log10 of the molar value.
experimental.endpoint: pIC50

[in] Quick check: pIC50 of "C=CC(=O)N[C@H]1CC[C@@H](C(=O)Nc2ccc(F)c(CNc3nc(NC4CCOCC4)nc4c(C(C)C)cnn34)c2)CC1" ?
[out] < 6.00

[in] // next record C=CC(=O)NC(C)C(=O)Nc1cccc(CNc2nc(NC3CCOCC3)nc3c(C(C)C)cnn23)c1 (stereo not shown)
[out] 6.00 to 6.52

[in] // next record C=CC(=O)N[C@H]1CC[C@@H](C(=O)Nc2cccc(CNc3nc(NC4CCCC(O)C4)nc4c(C(C)C)cnn34)c2)CC1 (single isomer, unassigned) [Compound 10]
[out] 6.00 to 6.52

[in] // next record C=CC(=O)N1CCC1C(=O)Nc1cccc(CNc2cc(NC3CCOCC3)nc3c(C(C)C)cnn23)c1 (stereo not shown)
[out] > 6.52

[in] // next record C=CC(=O)N1CCC1C(=O)Nc1cccc(CNc2nc(OC3CCN(C)CC3)nc3c(C(C)C)cnn23)c1 (stereo not shown)
[out] > 6.52

[in] // next record C=CC(=O)N1CCC(C(=O)Nc2cccc(CNc3nc(NC4CCCC(N)C4)nc4c(C(C)C)cnn34)c2)C1 (stereo not shown)
[out] > 6.52

[in] // next record "CC(C)c1cnn2c(NCc3cccc(NC(=O)/C=C/CN4CCCC4)c3)nc(NC3CCOCC3)nc12"
[out] > 6.52

[in] // next record C=CC(=O)N1CCCC(C(=O)Nc2cccc(CNc3nc(OC4CCN(C)CC4)nc4c(C(C)C)cnn34)c2)C1 (stereo not shown)
[out] > 6.52

[in] // next record C=CC(=O)N1CCC(C(=O)Nc2cccc(CNc3nc(NC4CCCC(O)C4)nc4c(C(C)C)cnn34)c2)C1 (single isomer, unassigned) [Compound 12]
[out] 6.00 to 6.52

[in] // next record "C=CC(=O)N[C@H]1CC[C@@H](C(=O)Nc2cccc(CNc3nc(N[C@H]4CC[C@H](O)CC4)nc4c(C(C)C)cnn34)c2)CC1"
[out] < 6.00

[in] // next record C=CC(=O)N1CCOCC1C(=O)Nc1cncc(CNc2nc(NC3CCOCC3)nc3c(C(C)C)cnn23)c1 (stereo not shown)
[out] > 6.52

[in] // next record C=CC(=O)N1CCC(C(=O)Nc2cccc(CNc3nc(OC4CCN(C)CC4)nc4c(C(C)C)cnn34)c2)C1 (stereo not shown) [Compound 108]
[out] > 6.52

[in] // next record C=CC(=O)N1CCC(C(=O)Nc2cccc(CNc3nc(NC4CCOCC4)nc4c(C(C)C)cnn34)c2)C1 (single isomer, unassigned) [Compound 6]
[out] > 6.52

====

Biological target: CDK7/CycH/MNAT1 (Homo sapiens (Human), UniProt P50613)
Test: Biochemical assay for CDK7 (TR-FRET kinase assay)
Conditions: 60 min pre-incubation; 1 mM ATP; read-out: IC50
Description: The ability of compounds to inhibit CDK7 kinase activity was tested in a TR-FRET assay using 5 nM of CDK7/CycH/MNAT1 obtained from Invitrogen, USA. Test compounds were pre-incubated with the kinase at room temperature for 60 min. […] 1 nM Eu-labelled antiphospho-MBP antibody [Perkin Elmer, USA] was added, mixed well and the fluorescence emission at 615 nm and 665 nm [excitation at 340 nm] was measured. […] All the fluorescence measurements were made in a Victor 3 Multilabel Counter [Perkin Elmer, USA]. […]
pIC50: −log10 of the molar value.
So I've got a bunch of compounds here, and I need their pIC50 values.

[in] Quick check: pIC50 of "CC(C)c1cnn2c(NCc3ccccc3N3CCN(C(=O)/C=C/CN(C)C)CC3)nc(NC3CCOCC3)nc12" ?
[out] > 6.52

[in] // next record C=CC(=O)NC1CCCC(C(=O)Nc2cccc(CNc3nc(OC4CCN(C)CC4)nc4c(C(C)C)cnn34)c2)C1 (centres unmarked)
[out] > 6.52

[in] // next record C=CC(=O)N1CCC1C(=O)Nc1cccc(CNc2nc(NC3CCOCC3)nc3c(C(C)C)cnn23)c1 (centres unmarked)
[out] > 6.52

[in] // next record "C=CC(=O)NC1(C(=O)Nc2cccc(CNc3nc(NC4CCOCC4)nc4c(C(C)C)cnn34)c2)CC1"
[out] > 6.52

[in] // next record CC(C)c1cnn2c(NCc3cccc(NC(=O)C4CCCN(C(=O)/C=C/CN(C)C)C4)c3)nc(OC3CCN(C)CC3)nc12 (centres unmarked)
[out] > 6.52

[in] // next record CC(C)c1cnn2c(NCc3cccc(NC(=O)C4CCN4C/C=C/C(=O)N(C)C)c3)nc(NC3CCOCC3)nc12 (centres unmarked)
[out] < 6.00

[in] // next record "C=CC(=O)N(C)C1(C(=O)Nc2cccc(CNc3nc(NC4CCOCC4)nc4c(C(C)C)cnn34)c2)CC1"
[out] > 6.52

[in] // next record C=CC(=O)N1CCCCC1C(=O)Nc1cc(F)cc(CNc2nc(NC3CCOCC3)nc3c(C(C)C)cnn23)c1 (centres unmarked)
[out] 6.00 to 6.52

[in] // next record "CC(C)c1cnn2c(NCc3cccc(NC(=O)/C=C/CN(C)C)c3)nc(NC3CCOCC3)nc12"
[out] > 6.52

[in] // next record "C=CC(=O)N[C@H]1CC[C@@H](C(=O)Nc2cccc(CNc3nc(NC4CCOCC4)nc4c(C(C)C)cnn34)c2F)CC1"
[out] > 6.52

[in] // next record CC(C)=CC(=O)N1CCC1C(=O)Nc1cccc(CNc2nc(NC3CCOCC3)nc3c(C(C)C)cnn23)c1 (centres unmarked)
[out] < 6.00

[in] // next record "C=CC(=O)N[C@H]1CC[C@@H](C(=O)Nc2cccc(Nc3nc(OC4CCN(C)CC4)nc4c(C(C)C)cnn34)c2)CC1"
[out] < 6.00

[in] // next record "CC(C)c1cnn2c(NCc3cccc(NC(=O)/C=C/CN(C)C)c3F)nc(NC3CCOCC3)nc12"
[out] > 6.52

[in] // next record C=CC(=O)N1CCC(C(=O)Nc2cc(F)cc(CNc3nc(NC4CCOCC4)nc4c(C(C)C)cnn34)c2)C1 (centres unmarked)
[out] 6.00 to 6.52

====

biological target: CDK7/CycH/MNAT1 (Homo sapiens (Human), UniProt P50613); assay: Biochemical assay for CDK7 (TR-FRET kinase assay); settings: 10 μM compound; 60 min pre-incubation; 1 mM ATP; read-out: % inhibition @ 10 μM
So I've got a bunch of molecules here, and I need their inhibition at 10 µM values.
Write it as a number; the unit % goes unstated.

[in] Quick check: inhibition at 10 µM of CC(C)c1cnn2c(NCc3cccc(NC(=O)/C=C/CN(C)C)c3)nc(NC3CCOCC3)nc12 [Compound 53] ?
[out] 99

[in] // next record C=CC(=O)N1CCC1C(=O)Nc1cccc(CNc2cc(NC3CCOCC3)nc3c(C(C)C)cnn23)c1 (stereo not shown) [Compound 139]
[out] 98

[in] // next record C=CC(=O)N1CCOCC1C(=O)Nc1cccc(CNc2nc(NC3CCOCC3)nc3c(C(C)C)cnn23)c1 (stereo not shown) [Compound 24]
[out] 98

[in] // next record C=CC(=O)N1CCCCC1C(=O)Nc1cc(CNc2nc(NC3CCOCC3)nc3c(C(C)C)cnn23)ccc1F (stereo not shown) [Compound 44]
[out] 94

[in] // next record C=CC(=O)N1CCC(C(=O)Nc2cccc(CNc3nc(OC)nc4c(C(C)C)cnn34)c2)CC1 [Compound 136]
[out] 73

[in] // next record C=CC(=O)N[C@H]1CC[C@@H](C(=O)Nc2cccc(CNc3nc(N[C@H]4CC[C@H](O)CC4)nc4c(C(C)C)cnn34)c2)CC1 [Compound 9]
[out] 85

[in] // next record CC(C)c1cnn2c(NCc3cc(F)cc(NC(=O)/C=C/CN(C)C)c3)nc(NC3CCOCC3)nc12 [Compound 59]
[out] 98

====

target: CDK7/CycH/MNAT1 (Homo sapiens (Human)); test: Biochemical assay for CDK7 (TR-FRET kinase assay); conditions: 60 min pre-incubation; 1 mM ATP; read-out: IC50
pIC50: −log10 of the molar value.
experimental.endpoint: pIC50

[in] Give CDK7/CycH/MNAT1 (Homo sapiens (Human)) pIC50 for C=CC(=O)N[C@H]1CC[C@@H](C(=O)Nc2cccc(CNc3nc(OC4CCOCC4F)nc4c(C(C)C)cnn34)c2)CC1 (single isomer, unassigned) [Compound 99]
[out] < 6.00

[in] // next record "C=CC(=O)N(C)CC(=O)Nc1cccc(CNc2nc(NC3CCOCC3)nc3c(C(C)C)cnn23)c1"
[out] > 6.52

[in] // next record "C=CC(=O)N1CCC(C(=O)Nc2cccc(CNc3nc(OC4CCNCC4)nc4c(C(C)C)cnn34)c2)CC1"
[out] < 6.00

[in] // next record C=CC(=O)N1C(C)CCCC1C(=O)Nc1cccc(CNc2nc(NC3CCOCC3)nc3c(C(C)C)cnn23)c1 (centres unmarked) [Compound 40C]
[out] > 6.52

[in] // next record "CC(C)c1cnn2c(NCC3CCN(C(=O)/C=C/CN4CCCC4)CC3)nc(NC3CCOCC3)nc12"
[out] < 6.00

[in] // next record "C=CC(=O)N[C@H]1CC[C@@H](C(=O)Nc2cccc(CNc3nc(OC4CCOCC4)nc4c(C(C)C)cnn34)c2)CC1"
[out] 6.00 to 6.52

[in] // next record C=CC(=O)N1CCC(C(=O)Nc2cccc(CNc3nc(OCCOCCOC)nc4c(C(C)C)cnn34)c2)C1 (centres unmarked)
[out] < 6.00

[in] // next record "CC(C)c1cnn2c(NCc3cccc(NC(=O)/C=C/CN4CCC(F)(F)C4)c3)nc(NC3CCOCC3)nc12"
[out] < 6.00

[in] // next record CC(C)c1cnn2c(NCc3cccc(NC(=O)/C=C/CN4CCCC(F)C4)c3)nc(NC3CCOCC3)nc12 (centres unmarked)
[out] 6.00 to 6.52

[in] // next record C=CC(=O)N1CCCC(C(=O)Nc2ccc(CNc3nc(OC4CCN(C)CC4)nc4c(C(C)C)cnn34)c[n+]2[O-])C1 (centres unmarked)
[out] > 6.52

[in] // next record C=CC(=O)N1CCC(C(=O)Nc2cccc(CNc3nc(N[C@@H]4CCNC[C@H]4F)nc4c(C(C)C)cnn34)c2)C1 (some centres unmarked)
[out] > 6.52

[in] // next record "C=CC(=O)Nc1cccc(C(=O)Nc2cccc(CNc3nc(NC4CCOCC4)nc4c(C(C)C)cnn34)c2)c1"
[out] > 6.52

[in] // next record "C=CC(=O)N1CCN(C(=O)Oc2cccc(CNc3nc(NC4CCOCC4)nc4c(C(C)C)cnn34)c2)CC1"
[out] > 6.52

[in] // next record C=CC(=O)N1CCC(C(=O)Nc2cccc(CNc3nc(NC4CCOCC4)nc4c(C(C)C)cnn34)c2)C1 (centres unmarked) [Compound 4]
[out] > 6.52
